Listing of entries alongside the reported pKd.
Molecular target: T1, 犬IL-31RA ECD-10His (犬 (canine))
T1 chain: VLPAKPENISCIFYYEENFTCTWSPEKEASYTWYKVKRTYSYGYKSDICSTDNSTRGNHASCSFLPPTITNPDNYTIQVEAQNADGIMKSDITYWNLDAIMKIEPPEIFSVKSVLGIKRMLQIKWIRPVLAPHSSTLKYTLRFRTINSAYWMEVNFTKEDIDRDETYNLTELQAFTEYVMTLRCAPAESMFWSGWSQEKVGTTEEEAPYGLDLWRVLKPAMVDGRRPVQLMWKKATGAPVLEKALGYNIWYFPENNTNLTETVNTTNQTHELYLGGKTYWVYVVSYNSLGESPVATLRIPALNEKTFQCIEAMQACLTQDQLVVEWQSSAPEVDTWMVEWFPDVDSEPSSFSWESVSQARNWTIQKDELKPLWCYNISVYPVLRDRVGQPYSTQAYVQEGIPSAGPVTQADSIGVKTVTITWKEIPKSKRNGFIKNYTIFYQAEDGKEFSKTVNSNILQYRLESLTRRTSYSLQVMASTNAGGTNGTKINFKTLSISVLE
Assay: Octet BLI, biotinylated canine IL-31RA on SA biosensor, mAb 100-3.13 nM, 1:1 model
Quick note: pKd means taking -log10 of the concentration in moles per liter.

Known pKd results, listed for orientation:
[[record]]
binder = "85C10 (antibody, V domains shown) VH: EFQLQQSGPELVKPGASVKISCKASGYSFTDYSINWVKQSNGKSLEWIGVINPNYGTSSHNQKFKGKATMTVDQSSSTAYMQLNSLTSEDSAVYYCARALDDYYFYWYFDVWGIGTTVTVSS VL: DVVMTQTPLSLPVSLGDQASISCRSSQSLIHTNGNTYLHWYLQKPGQSPKLLIYKVSNRFSGVPDRFSGSGSGTDFTLKISRLEAEDLGVYFCSQSTHVPLTFGAGTKLELR"
experimental_value = 9.07

[[record]]
binder = "51F8 (antibody, V domains shown) VH: EVQLQQSVAELVRPGASVKLSCTASGFNIKNTFIHWVKQRPEQGLEWIGRIDPANGNTKYAPKFQGRATLTADTSSNTAYLQLSSLTSEDTAIYYCARYYYVSSYFDVWGTGTTVTVSS VL: SIVMTQTPKFLLVSAGDRVTITCKASQSVTNDVTWYQQKPGQSPKLLIYYASNRYTGVPDRFTGSGYGTDFTFTISTVQAEDLAVYFCQQDYSSPFTFGSGTKLEIK"
experimental_value = 9.68


[Q] Quick one: give measured pKd for 218D9 (antibody, V domains shown) VH: QVTLKESGPGILQPSQTLSLTCSFSGFSLSTFGRGVGWIRQPSGKGLDWLTHIWWDDDKYYNPALKSRLTISKDTSKNQVFLKIANVDTADTATYYCARIAGGLRRAPYAMDSWGQGTSVTVSS VL: DVVMTQTPLSLPVSLGDQASISCRSSQSLVHTNGNTYLHWYLQKPGQSPKLLIYKVSNRFSGVPDRFSGSGSGTDFTLKISRVEAEDLGVYFCSQTTHVPLTFGAGTKLELK
[A] 10.16
